Test system: IGROV-1
EXPERIMENT_SUMMARY: NCI tumour cell line growth inhibition, 48 h
The source made the active and inactive calls. No stated cut-off is given here; in the data, active = GI50 up to about 1.1 µM and inactive = higher.
METRIC_NAME: GI50

>>> value_reported("COc1ccc2c(c1)CC1(O)COc3cc(OC)ccc3C1O2 (stereo not given)")
"> 100 µM (inactive)"
>>> value_reported("COc1ccc(NC(=O)CSc2nc(C)nc3c2sc(=S)n3-c2ccccc2)cc1")
"> 10 µM (inactive)"
>>> value_reported("CN(C)C(=S)/N=c1\\ss/c(=N\\C(=S)N(C)C)n1-c1ccc2c(c1)OCO2")
"10 µM (inactive)"
>>> value_reported("Fc1cccc(Cl)c1C1SCc2nc3cc4ccccc4cc3n21 (stereo not given)")
"46.9 µM (inactive)"
>>> value_reported("O=c1[nH]nc(Nc2ccc(Cl)cc2)c2nnn(C3CCCCC3)c12")
"> 100 µM (inactive)"
>>> value_reported("CC1OC(OC2C(O[C@H]3CC[C@@H]4C(=CC[C@@H]5[C@@]4(C)C(=O)C[C@]4(C)[C@@H]([C@H](C)CC[C@@H](O)C(C)(C)O)CC[C@@]54C)C3(C)C)OC(CO)C(O)C2O)C(O)C(O)C1O (stereo not given in full)")
"75.5 µM (inactive)"
>>> value_reported("COC(=O)CC(c1ccccc1)C1(c2ccccc2)SCCS1 (stereo not given)")
"> 290 µM (inactive)"
>>> value_reported("CCOC(=O)c1c(-c2ccc(OC)cc2)ccn1C")
"> 10 µM (inactive)"
>>> value_reported("O=C(N/N=C/c1cc(Cl)cc(Cl)c1O)c1ccccc1O")
"1.69 µM (inactive)"
>>> value_reported("NNc1ccccc1Cl")
"> 100 µM (inactive)"

This collection of values is drawn from ChEMBL document CHEMBL1201862.
